The origin of these recorded values is PubChem BioAssay.

Below, each of the compounds is paired with its reported inhibition value.
- procedure-text: growth suppression of yeast trafficking mutant, preliminary HTS, modulators of trafficking downstream of Golgi apparatus project, 1536-format plate, OD 615 nm (AID 637)
- condition-summary: yeast transport mutant growth, absorbance 615 nm, 18 h; stronger effect = higher value
Activity calls are given as the source filed them. No stated cut-off is given here; in the data, active means inhibition above about 30%; inactive means the rest.
outcome-measure: inhibition

[
  {
    "compound": "CC(=NCCCN1CCOCC1)c1c(O)n(-c2ccccc2C)c(=O)[nH]c1=O",
    "value-measured": "-5% (inactive)"
  },
  {
    "compound": "O=P(OCC(F)(F)C(F)F)(N1CCCCC1)N1CCCCC1",
    "value-measured": "-7.9% (inactive)"
  },
  {
    "compound": "CCCCn1c(O)c(C=NC2CCCCC2N)c(=O)[nH]c1=O (stereo not given)",
    "value-measured": "1.43% (inactive)"
  },
  {
    "compound": "CC(C)C(=O)N1CCN(CCN=Cc2c(O)n(C)c(=O)n(C)c2=O)CC1",
    "value-measured": "-1.48% (inactive)"
  },
  {
    "compound": "Cc1ccc2c(c1)[C@@H]1CN(C)CC[C@@H]1N2C(=O)Nc1cccc(C(F)(F)F)c1",
    "value-measured": "1.15% (inactive)"
  }
]

###

- target-or-test-system: Pantothenate synthetase (Mycobacterium tuberculosis (strain ATCC 25618 / H37Rv)) (UniProt P9WIL5)
- Sequence (P9WIL5 whole entry, looked up): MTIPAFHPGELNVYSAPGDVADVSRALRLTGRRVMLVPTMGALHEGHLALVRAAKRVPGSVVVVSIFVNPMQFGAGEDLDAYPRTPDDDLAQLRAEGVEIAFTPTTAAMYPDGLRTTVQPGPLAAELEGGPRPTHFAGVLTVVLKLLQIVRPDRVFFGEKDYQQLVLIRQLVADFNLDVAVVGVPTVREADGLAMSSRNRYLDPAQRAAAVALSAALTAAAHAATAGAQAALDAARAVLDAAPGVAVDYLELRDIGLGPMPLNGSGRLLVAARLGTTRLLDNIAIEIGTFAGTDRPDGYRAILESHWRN
- procedure-text: Coupled enzyme confirmation of inhibitors against recombinant Mtb PanC (AID 375);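 further: 0% = full reaction with vehicle and 100% = no enzyme background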
- condition-summary: coupled enzyme assay; at 10 µM, stronger effect = higher value
Where a SMILES comes first, the peptide text is derived from it. The star is where a group is joined. Boc = CC(C)(C)OC(=O)*

[
  {
    "compound": "CCCC(=O)C1=C(N(C)c2ccccc2)CC(C)(C)C(C(=O)OC)C1=O (stereo unspecified)",
    "inhibition / %": 1
  },
  {
    "compound": "CCN(CC(=O)Nc1ccc2c(c1)OCCO2)Cc1cc(=O)oc2cc(C)c(C)cc12",
    "inhibition / %": 0
  },
  {
    "compound": "Cc1ccc(-c2cc(C(=O)Nc3cc(C)on3)c3ccccc3n2)c(C)c1",
    "inhibition / %": 0
  },
  {
    "compound": "Cc1csc(NC(=O)c2cccs2)n1",
    "inhibition / %": 0
  },
  {
    "compound": "Cc1nc2sc(C(c3cccc(F)c3)N3CCN(C(=O)c4ccco4)CC3)c(O)n2n1 (stereo unspecified)",
    "inhibition / %": 0
  },
  {
    "compound": "CC(C)Cc1nc(N2CCN(C(=O)c3ccco3)CC2)c(C#N)c2c1CCC2",
    "inhibition / %": 5
  },
  {
    "compound": "O=P(O)(CCc1ccccc1)CN1CCCCC1",
    "inhibition / %": 6
  },
  {
    "compound": "N#CC1=C(N)N(c2ccccc2)C(c2ccco2)C1(C#N)C#N (stereo unspecified)",
    "inhibition / %": 2
  },
  {
    "compound": "Cc1c(=O)n(OCc2ccccn2)c2ccccc2[n+]1[O-]",
    "inhibition / %": 0
  },
  {
    "compound": "COc1ccc(N=c2scc(-c3ccc(S(=O)(=O)N4CCOCC4)cc3)n2CCCO)cc1",
    "inhibition / %": 0
  },
  {
    "compound": "CC(C)CC(NC(=O)OC(C)(C)C)C(=O)NC(C(=O)N1CCCC1C(N)=O)C(C)C (stereo not drawn) (Boc-Leu-Val-Pro-NH2; configuration not given here)",
    "inhibition / %": 0
  },
  {
    "compound": "COc1ccc(CCNC(=O)CC2COc3ccccc3O2)cc1OC (stereo unspecified)",
    "inhibition / %": 0
  },
  {
    "compound": "CCOC(=O)c1ccc2nc(C)c3c(c2c1)OC(C)C3 (stereo unspecified)",
    "inhibition / %": 0
  },
  {
    "compound": "CC1CN(C(=O)c2scc3c2OCCO3)CC(C)O1 (stereo unspecified)",
    "inhibition / %": 2
  },
  {
    "compound": "O=C(Nc1ccc2c(c1)OCO2)C1CCCN1C(=O)Nc1ccccc1F (stereo unspecified)",
    "inhibition / %": 3
  },
  {
    "compound": "COc1cccc(C(=O)Nc2ccc(NC(=O)C(C)(C)C)cn2)c1",
    "inhibition / %": 0
  },
  {
    "compound": "CC(C)(C)NC(=O)Nc1ccccc1C(N)=O",
    "inhibition / %": 5
  },
  {
    "compound": "CCC1CCCCN1C(=O)CSc1nnc(-c2ccc(OC)cc2)o1 (stereo unspecified)",
    "inhibition / %": 0
  },
  {
    "compound": "C=CCn1c(SCC(=O)c2cc(C)n(C(C)COC)c2C)nc2sc(C)c(C)c2c1=O (stereo unspecified)",
    "inhibition / %": 4
  },
  {
    "compound": "CCN1CCN(Cc2c(C)[nH]c3ccc(OC)cc3c2=O)CC1",
    "inhibition / %": 1
  },
  {
    "compound": "Cc1ccc(-n2cnnn2)c2cccnc12",
    "inhibition / %": 5
  },
  {
    "compound": "Cc1cc(C)nc(SCCS(=O)Cc2ccc(Cl)cc2)n1 (stereo unspecified)",
    "inhibition / %": 0
  },
  {
    "compound": "CC1CCN(c2c(NCc3ccc(C(=O)N4c5ccccc5CC4C)cc3)c(=O)c2=O)CC1 (stereo unspecified)",
    "inhibition / %": 0
  },
  {
    "compound": "CN1CCc2c(sc3c2C(=O)NC(c2cccc(OC(=O)c4cccs4)c2)N3)C1 (stereo unspecified)",
    "inhibition / %": 0
  },
  {
    "compound": "Cc1cc(S(=O)(=O)NC2CCCCC2)ccc1OCC(=O)NCc1ccccn1",
    "inhibition / %": 0
  },
  {
    "compound": "Nc1nc(-c2ccccc2Br)cs1",
    "inhibition / %": 3
  },
  {
    "compound": "O=S(=O)(c1cccc2cnccc12)N1CCCNCC1",
    "inhibition / %": 3
  },
  {
    "compound": "CCN(CC(=O)NCc1cccs1)C(=O)c1cc(S(=O)(=O)N2CCOCC2)ccc1C",
    "inhibition / %": 0
  },
  {
    "compound": "CCOCCCNC(=O)CCNS(=O)(=O)c1ccc(C)cc1",
    "inhibition / %": 2
  },
  {
    "compound": "Cc1ccc(N2C(=O)c3ccccc3C2Nc2cccnc2)nc1 (stereo unspecified)",
    "inhibition / %": 1
  },
  {
    "compound": "O=C(Cn1c2c(c(-c3ccccc3Cl)cc1=O)CCC2)N1CCC2(CC1)OCCO2",
    "inhibition / %": 6
  },
  {
    "compound": "Nc1nnc(-c2cc3ccccc3oc2=O)s1",
    "inhibition / %": 8
  },
  {
    "compound": "CCCCC(=O)NCCc1cc2ccc(OC)cc2[nH]c1=O",
    "inhibition / %": 0
  },
  {
    "compound": "Cc1nc2ccc(CCO)cc2s1",
    "inhibition / %": 0
  },
  {
    "compound": "CCOC(=O)c1sc(NC(=O)CSc2nnc3c4ccccc4n(CC)c3n2)nc1C",
    "inhibition / %": 3
  },
  {
    "compound": "COc1ccc(C2C(C(C)=O)=C(O)C(=O)N2C)c(OC)c1 (stereo unspecified)",
    "inhibition / %": 0
  },
  {
    "compound": "O=C(CCCn1c(=S)[nH]c2ccccc2c1=O)N1CCCCC1",
    "inhibition / %": 0
  },
  {
    "compound": "O=C(O)CCC(=O)Nc1ccc(S(=O)(=O)Nc2nccs2)cc1",
    "inhibition / %": 0
  },
  {
    "compound": "Cc1cc(=O)n(C)c(=O)n1CCCCCN1CCCC1",
    "inhibition / %": 0
  },
  {
    "compound": "C1CCN=C(Nc2nc3c(s2)CCCC3)CC1",
    "inhibition / %": 3
  },
  {
    "compound": "CCOC(=O)Cc1nnc(NC(=O)CSc2nnc3c4ccccc4n(C(C)C)c3n2)s1",
    "inhibition / %": 1
  },
  {
    "compound": "OCC(O)CN1CCN(c2ccccc2)CC1 (stereo unspecified)",
    "inhibition / %": 0
  },
  {
    "compound": "CCOC(=O)c1sc2nc(SCC#N)n(CCCN3CCCC3=O)c(=O)c2c1C",
    "inhibition / %": 0
  },
  {
    "compound": "Cc1ccccc1NS(=O)(=O)c1ccc(NC(=O)c2ccco2)cc1",
    "inhibition / %": 0
  },
  {
    "compound": "CC1CCN(C(=O)Cn2cc3c(n2)CCCC3)CC1",
    "inhibition / %": 0
  },
  {
    "compound": "CS(=O)(=O)N1CCCC(C(=O)NCCCN2CCc3ccccc3C2)C1 (stereo unspecified)",
    "inhibition / %": 2
  }
]
